// data source = patent US20250388666A1

Target: T1, CEACAM1 (Sino Biological) (human, UniProt P13688 35-428, limits assumed)
T1 construct: may be the same as CEACAM1-HIS; also called hCEACAM1; biotinylated soluble CEACAM1
T1 sequence: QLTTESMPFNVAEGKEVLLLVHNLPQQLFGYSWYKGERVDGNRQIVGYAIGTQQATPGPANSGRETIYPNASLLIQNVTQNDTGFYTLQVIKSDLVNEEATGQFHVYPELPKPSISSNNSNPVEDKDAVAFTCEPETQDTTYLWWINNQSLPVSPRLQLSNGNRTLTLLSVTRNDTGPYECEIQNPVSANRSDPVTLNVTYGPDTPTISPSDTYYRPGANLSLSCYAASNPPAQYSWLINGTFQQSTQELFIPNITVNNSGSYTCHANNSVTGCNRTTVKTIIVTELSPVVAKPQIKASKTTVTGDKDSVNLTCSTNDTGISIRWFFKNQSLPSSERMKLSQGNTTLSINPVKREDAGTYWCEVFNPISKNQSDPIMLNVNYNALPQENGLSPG
Experiment: SPR single-cycle
fold better than Parent (KD): recorded values
TEST_READOUT: fold better than Parent (KD) (fold)

INSERT INTO measurements (binder, reported_measurement) VALUES
  ('He4/L19 (antibody, IgG4, V domains shown, IgG4 S241P, kappa) VH: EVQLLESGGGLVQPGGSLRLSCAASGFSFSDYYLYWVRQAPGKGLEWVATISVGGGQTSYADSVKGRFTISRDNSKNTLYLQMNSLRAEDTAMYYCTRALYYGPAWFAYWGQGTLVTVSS VL: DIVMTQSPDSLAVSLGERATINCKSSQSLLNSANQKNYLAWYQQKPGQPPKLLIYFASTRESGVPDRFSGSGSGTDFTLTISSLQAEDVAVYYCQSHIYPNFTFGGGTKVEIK', 1.77),
  ('He6/L17 (antibody, IgG4, V domains shown, IgG4 S241P, kappa) VH: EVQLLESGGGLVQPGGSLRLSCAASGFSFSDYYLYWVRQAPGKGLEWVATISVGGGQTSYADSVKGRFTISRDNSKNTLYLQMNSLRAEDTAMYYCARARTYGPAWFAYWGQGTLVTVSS VL: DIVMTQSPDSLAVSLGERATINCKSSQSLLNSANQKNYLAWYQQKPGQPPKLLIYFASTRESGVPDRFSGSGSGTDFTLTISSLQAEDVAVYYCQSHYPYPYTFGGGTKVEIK', 1.75),
  ('He1/L3 (antibody, IgG4, V domains shown, IgG4 S241P, kappa) VH: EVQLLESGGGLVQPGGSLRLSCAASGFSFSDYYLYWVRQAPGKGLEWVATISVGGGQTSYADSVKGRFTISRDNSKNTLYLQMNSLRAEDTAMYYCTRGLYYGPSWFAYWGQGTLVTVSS VL: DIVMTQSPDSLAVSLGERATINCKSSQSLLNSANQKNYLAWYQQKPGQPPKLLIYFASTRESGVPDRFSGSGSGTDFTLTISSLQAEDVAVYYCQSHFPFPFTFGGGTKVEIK', 2.1);
